So I've got a bunch of molecules here, and I need their Kd values.
target: HIV-1 TAR RNA; type: binding; settings: EMSA; positional scanning library, Table S1; with tRNA; read-out: Kd (nM) w/tRNA
Non-standard residues stand in square brackets, D forms with d. Residues, ends and D or L forms follow the SMILES beside them. hArg = N=C(N)NCCCC[C@H](N)C(=O)O
Write down the numeric answer in nM and omit the unit.

Query: # lookup: Kd of CC[C@H](C)[C@@H]1NC(=O)[C@H](CCCNC(=N)N)NC(=O)[C@H](CCCNC(=N)N)NC(=O)CNC(=O)[C@H](CCCCN)NC(=O)[C@H](CCCNC(=N)N)NC(=O)[C@H]([C@@H](C)O)NC(=O)[C@H](CCCNC(=N)N)NC(=O)[C@H](C(C)C)NC(=O)[C@H](CCCNC(=N)N)NC(=O)[C@@H]2CCCN2C(=O)[C@H]2CCCN2C(=O)[C@H](CC(C)C)NC(=O)[C@H](CCCNC(=N)N)NC1=O [JB-85] (cyclo(RVRTRKGRRIRL[dP]P))
Reply: 50

Query: Field request: Kd | item: CC[C@H](C)[C@@H]1NC(=O)[C@H](CCCNC(=N)N)NC(=O)[C@H](CCCNC(=N)N)NC(=O)CNC(=O)[C@H](CCCCN)NC(=O)[C@H](CCCNC(=N)N)NC(=O)[C@H]([C@@H](C)O)NC(=O)[C@H](CCCNC(=N)N)NC(=O)[C@H](C(C)C)NC(=O)[C@H](CCCCNC(=N)N)NC(=O)[C@@H]2CCCN2C(=O)[C@H]2CCCN2C(=O)[C@H]([C@@H](C)CC)NC(=O)[C@H](CCCNC(=N)N)NC1=O [KP-Y-01] (cyclo([hArg]VRTRKGRRIRI[dP]P))
Reply: 150
